test: Inhibition of human PP1
Catalogue of compounds with associated log10 IC50
Recall that a logarithmic scale is used here: each number is log10 of IC50 in µM.

Below are worked cases with known answers.
> print(dat)
                                   compound  numeric.readout
1  C=CCNC(=O)C1C(C(=O)O)[C@@H]2CC[C@H]1O2 (some centres not stated)             1.60
2  O=C(O)C1C(C(=O)Nc2ccc([N+](=O)[O-])cc2)[C@H]2CC[C@@H]1O2 (some centres not stated)             1.87
3  CCCCCCOc1ccc(NC(=O)C2C(C(=O)O)[C@@H]3CC[C@H]2O3)cc1 (some centres not stated)             1.78
4  O=C(O)C1C(C(=O)Nc2ccc(O)cc2)[C@H]2CC[C@@H]1O2 (some centres not stated)             1.45
5  CCCNC(=O)C1C(C(=O)O)[C@@H]2CC[C@H]1O2 (some centres not stated)             1.66
6  O=C(O)C1C(C(=O)Nc2ccc3ccccc3c2)[C@H]2CC[C@@H]1O2 (some centres not stated)             1.15

log10 IC50 for C=Cc1ccc(NC(=O)C2C(C(=O)O)[C@@H]3CC[C@H]2O3)cc1 (some centres not stated) ?
1.36
